- MEASUREMENT TARGET: GABARAPL2, P60520
- Sequence (P60520 whole entry, the tested form may be a part): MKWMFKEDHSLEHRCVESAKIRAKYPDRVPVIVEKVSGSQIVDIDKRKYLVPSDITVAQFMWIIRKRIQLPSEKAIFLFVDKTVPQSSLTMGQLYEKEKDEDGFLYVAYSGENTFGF
- ASSAY: median log2 fold change of GCK-ALFA target abundance (FLAG IP / Myc IP barcode read proportion) (log2 ratio); each designed protein is fused to an ALFA-tag nanobody in HEK293 cells to bring the named protein to FLAG-tagged glucokinase (GCK); Myc marks an untargeted standard; higher = target protein stabilised (more abundant)
- SETTINGS: target protein: 3xFLAG-MCP-GCK-ALFA reporter; HEK293 landing pad (RPLP)
PROPERTY: median log2 fold change
Write no unit; give the number alone.

Recorded results for 3 binders are shown here.
BINDER: GBRAPL2_128_7284 (protein) MKLVEIDITVKNEEEYELVLKVLTEIAERGSPAVAKLADAAKDMVEEEKKEGFKDGVTVADVLSDEDAAELKALYEELAEKYGKEKVNKHIKLTVDDLPP
median log2 fold change: -0.0335
//
BINDER: GBRAPL2_53_7347 (protein) MIEIDIAHPDKEVMAETLEEIFDVLKKAGVEAKVTVTTENGEVIVLEGDLDEIKEKVVELAKKTNILVTIELPEDAEEVVEEIIDIALEKGAAVSVDGLE
median log2 fold change: -0.185
//
BINDER: GBRAPL2_54_7371 (protein) ETTVEIEATFLAEGTPEELARVRAVALEELEELKKELKEKFGAESEISAEEEDGVLSVTVTITTKKENLDEVLDLLEATRDRIAARTGLPVALVIGIKEL
median log2 fold change: -0.0591

Next, consider the following binder.
Fill blank: measured median log2 fold change of the binder GBRAPL2_175_7340 (protein) SAYEALLKEIIKLLLELSEKANDEVSDLLDAAAAVLETDGLAAAGRAAALVAEASKEAADNPQLQAALAKLAAALKALAAGAAPEEVEKLLKEAKAITKK is ____.
0.217
